biological target: M5; assay: ELISA on coated antigen, column M5
endpoint label: absorbance at 490 nm

{"binder": "PDL1-23E5 (antibody, V domains shown, Only FR/CDR pieces are tied to the clone) VH: QVQLVQSGAEVVKPGSSVKVSCKASGDTFSRYAISWVRQAPGQAPEWMGRIIPVLGAANYARKFQDRVTITADISTTTAFMELTSLRSEDTAVYYCARSLSGYSLGAFDVWGPGTLVTVSS VL: QLVLTQPPSVSGAPGQSVSISCIGSNSNIGTPYDVHWYQQIPGEAPKLLIYGSTNRPSGVPDRFSGSRSGSSASLDITGLQADDEAYYYCQSYDRSLGVSDVVFGGGTKLTVL", "endpoint label": "absorbance at 490 nm", "obs value": 2.5}
